Tested on: W2
Experiment: qHTS profiling for inhibitors of Plasmodium falciparum proliferation (AID 504749); also: nearly all actives have a fitted effect of over 60% in size; also: potency is read from the fitted curve at half-maximal effect
Settings: P. falciparum in erythrocytes, SYBR Green DNA, 72 h; series mostly up to 28.7 µM
Results filed as inconclusive are left out. The source made the active and inactive calls. Calls follow the shape of the dose curve; as a rule, active = well fitted inhibition curve with a large enough effect; inconclusive = small, poorly fitted or top-dose-only effect; inactive = flat fitted curve, though single readings scatter.
endpoint-name: Potency

Example molecules with recorded Potency:
C[C@@H](O)[C@@H]1C(=O)N2C(C(=O)O)=C([C@H]3CCCO3)S[C@H]12 = inactive
CCN(CC)CCOCCOC(=O)C(CC)(CC)c1ccccc1 (tested in a mixture with another compound) = 849 nM (active)
Clc1ccc(CS[C@@H](Cn2ccnc2)c2ccc(Cl)cc2Cl)cc1 = 1020 nM (active)
CC[C@]1([C@H]2O[C@@H]([C@@H]3O[C@](O)(CO)[C@@H](C)C[C@H]3C)C[C@H]2C)CC[C@@H]([C@]2(C)CC[C@@]3(C[C@@H](O)[C@@H](C)[C@@H]([C@H](C)[C@H](OC)[C@H](C)C(=O)O)O3)O2)O1 = 19 nM (active)
CC(C)(C)NC[C@H](O)CSc1nc(-c2ccc(C(N)=O)s2)cs1 = inactive
C=C1N[C@]2(C(=O)COC(C)=O)[C@@H](C[C@H]3[C@@H]4CCC5=CC(=O)C=C[C@]5(C)[C@H]4[C@@H](O)C[C@@]32C)O1 = 15100 nM (active)
C/C(=C(/CCO)SS/C(CCO)=C(\C)N(C=O)Cc1cnc(C)nc1N)N(C=O)Cc1cnc(C)nc1N = inactive
Cn1cc(C(=O)[C@@H]2CCc3[nH]cnc3C2)c2ccccc21 = inactive

Kindly note the recorded Potency for CO/N=C(/C(=O)N[C@@H]1C(=O)N2C(C(=O)O)=C(C[n+]3ccc(N)n3CCO)CS[C@H]12)c1csc(N)n1 , which is inactive

Potency reading for CNC1C(O)C(OC2C(N)CC(N)C(OC3OC(CN)=CCC3N)C2O)OCC1(C)O (stereo not drawn) : inactive

Measured Potency, CO[C@H]1/C=C/O[C@@]2(C)Oc3c(C)c(O)c4c(O)c(c5c(c4c3C2=O)NC2(CCN(CC(C)C)CC2)N=5)=NC(=O)/C(C)=C\C=C\[C@H](C)[C@H](O)[C@@H](C)[C@@H](O)[C@@H](C)[C@H](OC(C)=O)[C@@H]1C : 4780 nM (active)

Input O=C1[C@@H]2C[C@@H]3C[C@H]1C[C@@](O)(C3)C2 . Output Potency: inactive

GET /value?item= C/C1=C2/[N-]C(C(CC(N)=O)[C@@]2(C)CCC(=O)NCC(C)OP(=O)([O-])O[C@H]2[C@@H](O)[C@@H](n3cnc4cc(C)c(C)cc43)O[C@@H]2CO)[C@]2(C)N=C(/C(C)=C3N=C(/C=C4N=C1C(CCC(N)=O)C\4(C)C)[C@@H](CCC(N)=O)[C@]\3(C)CC(N)=O)[C@@H](CCC(N)=O)[C@]2(C)CC(N)=O.CC(=O)O.[Co] (stereo partly drawn) &field=Potency returns 601 nM (active)

The molecule listed as CCCC[C@H](O)c1ccccc1 shows Potency equal to inactive

// O=C1NC(=O)C2C3C=CC(C3)C12 (stereo not drawn) : Potency value = inactive

Notebook: OC[C@@H](O)C(O[C@@H]1O[C@@H](CO)[C@H](O)[C@H](O)[C@H]1O)[C@H](O)[C@@H](O)CO (stereo partly drawn) , Potency read as inactive
